Biological target: T1, IL-13RA2 huFc (human)
T1 construct: Expressed in 293F cells, purified on protein A; also called human IL13RA2; recombinant IL-13RA2
T1 sequence (chain, as listed by the source limits assumed): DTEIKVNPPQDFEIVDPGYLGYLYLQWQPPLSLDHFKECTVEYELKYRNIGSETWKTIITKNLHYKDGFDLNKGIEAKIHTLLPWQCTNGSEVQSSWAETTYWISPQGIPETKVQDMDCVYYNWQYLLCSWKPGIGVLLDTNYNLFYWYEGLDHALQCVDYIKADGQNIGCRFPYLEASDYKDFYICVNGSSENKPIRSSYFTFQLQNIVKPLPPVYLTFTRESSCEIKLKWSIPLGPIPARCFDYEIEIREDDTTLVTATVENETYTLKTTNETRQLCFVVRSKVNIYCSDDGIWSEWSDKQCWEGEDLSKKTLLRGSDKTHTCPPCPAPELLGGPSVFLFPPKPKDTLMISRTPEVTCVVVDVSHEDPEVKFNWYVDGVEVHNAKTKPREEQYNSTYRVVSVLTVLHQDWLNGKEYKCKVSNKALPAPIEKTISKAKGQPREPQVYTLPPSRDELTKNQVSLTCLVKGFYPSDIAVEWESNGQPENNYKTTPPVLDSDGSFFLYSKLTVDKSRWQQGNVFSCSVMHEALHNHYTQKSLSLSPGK
Experiment: SPR (Biacore), induced scFv supernatant; column head: Dissociation constant Kd(S-1)
Reported koff by item:
# output: number + unit

Some entries whose results are on file:
>>> result("5G3 (scFv) (scFv, also called clone 5G3) scFv: EVQLLESGGGLVQPGGSLRLSCAASGFTFSSYVLSWVRQAPGKGLEWVSAIRGSAGNTYYADSVKGRFTISRDNSKNTLYLQMNSLRAEDTAVYYCARVAFSGSFDYWGQGTLVTVSSGGGGSGGGGSGGGGSDIQMTQSPSTLSASVGDRVTITCRASQSISSWLAWYQQKPGKAPKLLIYDASSLESGVPSRFSGSGSGTEFTLTISSLQPDDFATYYCQQRNRYPPTFGQGTKVEIK")
"0.000941 s⁻¹"
>>> result("1H7 (scFv) (scFv, also called clone 1H7) scFv: EVQLLESGGGLVQPGGSLRLSCAASGFTFRRYAMSWVRQAPGKGLEWVSGISGSGGGTYYADSVKGRFTISRDNSKNTLYLQMNSLRAEDTAVYYCAKVRYGWGAGAFDYWGQGTLVTVSSGGGGSGGGGSGGGGSDIQMTQSPSTLSASVGDRVTITCRASQSISSWLAWYQQKPGKAPKLLIYDASSLESGVPSRFSGSGSGTEFTLTISSLQPDDFATYYCQQYDTYPPITFGQGTKVEIK")
"0.000888 s⁻¹"
>>> result("2D4 (scFv) (scFv, also called clone 2D4) scFv: EVQLLESGGGLVQPGGSLRLSCAASGFTFRKYAMGWVRQAPGKGLEWVSGISGSVGSTYYADSVKGRFTISRDNSKNTLYLQMNSLRAEDTAVYYCAKVRYGWGAGAFDYWGQGTLVTVSSGGGGSGGGGSGGGGSDIQMTQSPSTLSASVGDRVTITCRASQSISSWLAWYQQKPGKAPKLLIYDASSLESGVPSRFSGSGSGTEFTLTISSLQPDDFATYYCQQYDTYPPITFGQGTKVEIK")
"0.000837 s⁻¹"

As a next step, examine the binder that follows.
Data point: 1B11 (scFv) (scFv, also called clone 1B11) scFv: EVQLLESGGGLVQPGGSLRLSCAASGFTFSRDALNWVRQAPGKGLEWVSAISGSGGSTFYADSVKGRFTISRDNSKNTLYLQMNSLRAEDTAVYYCAKVRYGWGAGAFDYWGQGTLVTVSSGGGGSGGGGSGGGGSDIQMTQSPSTLSASVGDRVTITCRASQSISSWLAWYQQKPGKAPKLLIYDASSLESGVPSRFSGSGSGTEFTLTISSLQPDDFATYYCQQYDTYPPITFGQGTKVEIK ; koff = 0.000736 s⁻¹

Values compiled from patent US20190359723A1.
